Taken from patent US20230295298A1.

I'd be grateful if you could share measured H-Score of IHC for these entries.
- study-system: T1, human A33 antigen, full length, on cells (human, UniProt Q99795 22-319)
- T1 construct: CHO cells transfected with full length A33 cDNA (A33-CHO), or endogenous antigen of LS174T (colon) and AsPC-1 (pancreatic) tumour cells; The cell line is named under assay; also called A33-CHO; A33 antigen on LS174T cells
- T1 sequence: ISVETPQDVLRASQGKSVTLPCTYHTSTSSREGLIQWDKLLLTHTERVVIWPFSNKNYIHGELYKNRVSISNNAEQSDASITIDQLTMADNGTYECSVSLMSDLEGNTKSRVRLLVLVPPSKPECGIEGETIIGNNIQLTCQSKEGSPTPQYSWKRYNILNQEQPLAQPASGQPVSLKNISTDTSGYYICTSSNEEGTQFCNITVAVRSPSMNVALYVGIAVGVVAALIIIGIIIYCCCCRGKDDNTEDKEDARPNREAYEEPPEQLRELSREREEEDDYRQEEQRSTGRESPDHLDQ
- assay-explanation: IHC on LS174T FFPE sections, 20ug/mL, first result
One number for each entry, in H-Score.

binder	experimental-value
humanized 31.1 antibody #16 (ven31.1-HC + ven31.1-LC) (antibody, human IgG1, kappa, V domains shown, Full heavy and light chains; supernatant in the first screen, Protein A/G purified in the third round; also called Sample ID 16; ven-HC + ven-LC) VH: QIQLVQSGPEVKKPGASVKISCKASGYTFTNYGMNWVKQAPGQGLKWMGWINTYTGEPTYADDFKGRFAFTLDTSISTAYLEISRLRSDDTAVYFCARAYYGKYFDYWGQGTTLTVSS VL: SIVMTQSPSSLSVSVGDRVTITCKASQSVSNDVAWYQQKPGQSPKLLIYYASNRYTGVPDRFSGSGYGTDFTFTISSVQPEDLAVYFCQQDYSSPLTFGAGTKLELKR	0

Okay, next one:
Task item: Identify measured H-Score of IHC corresponding to humanized 31.1 antibody #5 (abb31.1-HC + cdr31.1-LC) (antibody, human IgG1, kappa, V domains shown, Full heavy and light chains; supernatant in the first screen, Protein A/G purified in the second round; also called Sample ID 5; abb-HC + cdr-LC) VH: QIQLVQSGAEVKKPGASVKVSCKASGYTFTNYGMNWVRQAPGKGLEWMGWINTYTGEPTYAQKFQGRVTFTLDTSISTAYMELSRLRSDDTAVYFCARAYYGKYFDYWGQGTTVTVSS VL: SIVMTQSPSSLSASVGDRVTITCKASQSVSNDVAWYQQKPGQSPKLLIYYASNRYTGVPDRFSGSGYGTDFTLTISSLQPEDFAVYFCQQDYSSPLTFGAGTKLEIKR
Reply: 240
